- target_or_system: PKR wt (Homo sapiens)
- Sequence (P30613 whole entry): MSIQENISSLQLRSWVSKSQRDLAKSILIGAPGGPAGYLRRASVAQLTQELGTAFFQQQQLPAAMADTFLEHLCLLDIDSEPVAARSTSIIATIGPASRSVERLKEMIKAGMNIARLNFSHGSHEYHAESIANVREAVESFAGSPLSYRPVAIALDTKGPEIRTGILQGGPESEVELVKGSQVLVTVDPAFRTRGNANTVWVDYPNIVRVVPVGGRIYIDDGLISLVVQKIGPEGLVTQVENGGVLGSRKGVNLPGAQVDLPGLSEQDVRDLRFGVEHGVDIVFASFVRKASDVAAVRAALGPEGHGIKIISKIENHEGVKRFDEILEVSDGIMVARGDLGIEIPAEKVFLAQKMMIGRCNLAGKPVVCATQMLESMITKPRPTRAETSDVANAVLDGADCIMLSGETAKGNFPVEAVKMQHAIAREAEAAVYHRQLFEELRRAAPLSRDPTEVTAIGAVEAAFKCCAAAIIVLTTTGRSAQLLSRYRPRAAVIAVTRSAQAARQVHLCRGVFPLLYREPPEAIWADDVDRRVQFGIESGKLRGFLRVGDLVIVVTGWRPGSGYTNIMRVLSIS
- assay_text: PKR WT Single Point Percent Activation Assay
- Assay type: biochemical
Task for the reader: assign each of the following compounds its reported activation at 1 µM.

Provide measured activation at 1 µM value, entry: C[C@H]1CN(Cc2ccc(Cl)c(F)c2)CCN1C(=O)c1ccc(NS(=O)(=O)c2cccc3cccnc23)cc1
101 to 500%

Provide measured activation at 1 µM value, entry: C[C@@H]1CN(CC2CCCO2)CCN1C(=O)c1ccc(NS(=O)(=O)c2cccc3cccnc23)cc1 (stereo partly drawn)
101 to 500%

Provide measured activation at 1 µM value, entry: C[C@H]1CN(CC2CCC2)CCN1C(=O)c1ccc(NS(=O)(=O)c2cccc3cccnc23)cc1
101 to 500%

Provide measured activation at 1 µM value, entry: C[C@H]1CN(C(=O)c2ccc(NS(=O)(=O)c3cccc4cccnc34)cc2)CCN1C(=O)c1ccccn1
101 to 500%

Provide measured activation at 1 µM value, entry: C[C@H]1CN(CC2CCCC2)CCN1C(=O)c1ccc(NS(=O)(=O)c2cccc3cccnc23)cc1
101 to 500%

Provide measured activation at 1 µM value, entry: CC(C)OC(=O)N1CCN(C(=O)c2ccc(NS(=O)(=O)c3cccc4cccnc34)cc2)[C@H](C)C1
101 to 500%

----------
Task for the reader: assign each of the following compounds its reported activation at 1 µM.
- target_or_system: PKR T384W (Homo sapiens, UniProt P30613, T384W)
- Sequence (P30613 whole entry T384W): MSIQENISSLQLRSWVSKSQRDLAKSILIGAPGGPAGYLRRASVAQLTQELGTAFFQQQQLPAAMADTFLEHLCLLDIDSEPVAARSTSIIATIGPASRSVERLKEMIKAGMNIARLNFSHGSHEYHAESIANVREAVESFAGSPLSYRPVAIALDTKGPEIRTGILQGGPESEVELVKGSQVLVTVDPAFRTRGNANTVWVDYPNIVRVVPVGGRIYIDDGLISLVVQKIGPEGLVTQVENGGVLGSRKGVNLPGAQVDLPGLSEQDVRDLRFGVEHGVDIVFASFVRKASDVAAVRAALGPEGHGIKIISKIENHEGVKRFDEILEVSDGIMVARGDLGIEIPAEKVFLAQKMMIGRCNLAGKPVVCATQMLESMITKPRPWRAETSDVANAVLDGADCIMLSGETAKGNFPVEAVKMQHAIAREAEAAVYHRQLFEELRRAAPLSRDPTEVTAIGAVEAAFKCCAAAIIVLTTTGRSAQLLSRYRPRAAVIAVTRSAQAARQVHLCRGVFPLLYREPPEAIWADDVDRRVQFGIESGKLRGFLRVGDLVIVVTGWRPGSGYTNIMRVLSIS
- assay_text: PKR T384W Single Point Percent Activation Assay
- Assay type: biochemical
- settings: read-out: Act. % 384W

Provide measured activation at 1 µM value, entry: O=C1CN(C(=O)c2ccc(NS(=O)(=O)c3cccc4cccnc34)cc2)CCN1CC1CC1
101 to 500%

Provide measured activation at 1 µM value, entry: O=C(c1ccc(NS(=O)(=O)c2cccc3cccnc23)cc1)N1CCN(CC2CC2)c2ccccc21
101 to 500%

Provide measured activation at 1 µM value, entry: C[C@@H]1CN(Cc2ccccc2F)CCN1C(=O)c1ccc(NS(=O)(=O)c2cccc3cccnc23)cc1
101 to 500%

Provide measured activation at 1 µM value, entry: CC(C)[C@H]1CN(Cc2cc(F)cc(F)c2)CCN1C(=O)c1ccc(NS(=O)(=O)c2cccc3cccnc23)cc1
101 to 500%

Provide measured activation at 1 µM value, entry: C[C@@H]1CN(CC2CCOC2)CCN1C(=O)c1ccc(NS(=O)(=O)c2cccc3cccnc23)cc1 (some centres unmarked)
101 to 500%

Provide measured activation at 1 µM value, entry: O=C(c1ccc(NS(=O)(=O)c2cccc3cccnc23)cc1)N1C2CCC1CN(CC1CC1)C2
101 to 500%

Provide measured activation at 1 µM value, entry: C[C@@H]1CN(CC2CC2)CCN1C(=O)c1ccc(NS(=O)(=O)c2cccc3cccnc23)cc1
101 to 500%

Provide measured activation at 1 µM value, entry: CC(C)OC(=O)N1CCN(C(=O)c2ccc(NS(=O)(=O)c3cccc4cccnc34)cc2)c2ccccc21
1 to 100%

Provide measured activation at 1 µM value, entry: C[C@@H]1CN(C[C@H]2CCCO2)CCN1C(=O)c1ccc(NS(=O)(=O)c2cccc3cccnc23)cc1
101 to 500%

Provide measured activation at 1 µM value, entry: O=C(c1ccc(NS(=O)(=O)c2cccc3cccnc23)cc1)N1C2CCC1CN(Cc1cc(F)cc(F)c1)C2
101 to 500%

Provide measured activation at 1 µM value, entry: CC(c1cc(F)c(F)cc1F)N1CCN(C(=O)c2ccc(NS(=O)(=O)c3cccc4cccnc34)cc2)[C@H](C)C1 (some centres unmarked)
1 to 100%

Provide measured activation at 1 µM value, entry: O=C(c1ccc(NS(=O)(=O)c2cccc3cccnc23)cc1)N1CCN(CC2CC2)C[C@@H]1c1ccccc1
1 to 100%

Provide measured activation at 1 µM value, entry: C[C@H]1CN(Cc2ccc(F)cc2)CCN1C(=O)c1ccc(NS(=O)(=O)c2cccc3cccnc23)cc1
101 to 500%

Provide measured activation at 1 µM value, entry: CC[C@H]1CN(Cc2ccc(F)cc2)CCN1C(=O)c1ccc(NS(=O)(=O)c2cccc3cccnc23)cc1
101 to 500%

Provide measured activation at 1 µM value, entry: C[C@@H]1CN(Cc2ccc(F)c(F)c2F)CCN1C(=O)c1ccc(NS(=O)(=O)c2cccc3cccnc23)cc1
101 to 500%

Provide measured activation at 1 µM value, entry: C[C@@H]1CN(C(=O)c2ccc(NS(=O)(=O)c3cccc4cccnc34)cc2)C[C@H](C)N1C(=O)c1ccccn1
101 to 500%

Provide measured activation at 1 µM value, entry: CC1CN(CC2CCOC2)CC(C)N1C(=O)c1ccc(NS(=O)(=O)c2cccc3cccnc23)cc1 (centres unmarked)
1 to 100%

Provide measured activation at 1 µM value, entry: CC[C@H]1CN(C(C)c2cc(F)c(F)c(F)c2)CCN1C(=O)c1ccc(NS(=O)(=O)c2cccc3cccnc23)cc1 (some centres unmarked)
1 to 100%

Provide measured activation at 1 µM value, entry: CC(c1cc(F)c(F)c(F)c1)N1CCN(C(=O)c2ccc(NS(=O)(=O)c3cccc4cccnc34)cc2)[C@H](C)C1 (some centres unmarked)
101 to 500%

Provide measured activation at 1 µM value, entry: O=C(c1ccc(NS(=O)(=O)c2cccc3cccnc23)cc1)N1CCn2c(nnc2-c2cc(F)cc(F)c2)C1
101 to 500%

Provide measured activation at 1 µM value, entry: COc1ccccc1N1C[C@@H](C)N(C(=O)c2ccc(NS(=O)(=O)c3cccc4cccnc34)cc2)[C@@H](C)C1
101 to 500%

Provide measured activation at 1 µM value, entry: CC(C)[C@H]1CN(C(C)c2ccc(F)cc2)CCN1C(=O)c1ccc(NS(=O)(=O)c2cccc3cccnc23)cc1 (some centres unmarked)
101 to 500%

Provide measured activation at 1 µM value, entry: C[C@@H]1CN(C[C@@H]2CCCO2)CCN1C(=O)c1ccc(NS(=O)(=O)c2cccc3cccnc23)cc1
101 to 500%

Provide measured activation at 1 µM value, entry: C[C@@H]1CN(CC2CCCO2)CCN1C(=O)c1ccc(NS(=O)(=O)c2cccc3cccnc23)cc1 (some centres unmarked)
1 to 100%

Provide measured activation at 1 µM value, entry: C[C@H]1CN(Cc2ccc(F)c(F)c2F)CCN1C(=O)c1ccc(NS(=O)(=O)c2cccc3cccnc23)cc1 [drawing 66]
1 to 100%

Provide measured activation at 1 µM value, entry: C[C@H]1CN(Cc2ccccc2)CCN1C(=O)c1ccc(NS(=O)(=O)c2cccc3cccnc23)cc1
101 to 500%

----------
Task for the reader: assign each of the following compounds its reported activation at 1 µM.
- target_or_system: PKR R532W (Homo sapiens, UniProt P30613, R532W)
- Sequence (P30613 whole entry R532W): as the sequence (P30613 whole entry T384W) above, with W384T, R532W counted along it
- assay_text: PKR R532W Single Point Percent Activation Assay
- Type: biochemical
- settings: read-out: Act, % 532W

Provide measured activation at 1 µM value, entry: C[C@H]1CN(Cc2ccccc2F)CCN1C(=O)c1ccc(NS(=O)(=O)c2cccc3cccnc23)cc1
101 to 500%

Provide measured activation at 1 µM value, entry: CCOC(=O)N1CCN(C(=O)c2ccc(NS(=O)(=O)c3cccc4cccnc34)cc2)c2ccccc21
101 to 500%

Provide measured activation at 1 µM value, entry: CC1CN(Cc2cc(F)cc(F)c2F)CC(C)N1C(=O)c1ccc(NS(=O)(=O)c2cccc3cccnc23)cc1 (stereo not shown)
101 to 500%

Provide measured activation at 1 µM value, entry: C[C@@H]1CN(C(=O)c2ccccn2)C[C@H](C)N1C(=O)c1ccc(NS(=O)(=O)c2cccc3cccnc23)cc1
1 to 100%

Provide measured activation at 1 µM value, entry: C[C@H]1CN(CC2CCCC2)CCN1C(=O)c1ccc(NS(=O)(=O)c2cccc3cccnc23)cc1
1 to 100%

Provide measured activation at 1 µM value, entry: COc1cccc(CN2CCN(C(=O)c3ccc(NS(=O)(=O)c4cccc5cccnc45)cc3)[C@H](C)C2)c1OC
101 to 500%

Provide measured activation at 1 µM value, entry: O=C(c1ccc(NS(=O)(=O)c2cccc3cccnc23)cc1)N1CCN(Cc2cc(F)cc(F)c2)C[C@@H]1c1ccccc1
1 to 100%

Provide measured activation at 1 µM value, entry: O=C1CN(Cc2cc(F)cc(F)c2)CCN1C(=O)c1ccc(NS(=O)(=O)c2cccc3cccnc23)cc1
101 to 500%

Provide measured activation at 1 µM value, entry: CC(C)[C@H]1CN(C(C)c2ccc(F)cc2)CCN1C(=O)c1ccc(NS(=O)(=O)c2cccc3cccnc23)cc1 (stereo partly shown)
101 to 500%

Provide measured activation at 1 µM value, entry: O=C(c1ccc(NS(=O)(=O)c2cccc3cccnc23)cc1)N1CCn2c(nnc2-c2cc(F)cc(F)c2)C1
101 to 500%

Provide measured activation at 1 µM value, entry: O=C(c1ccc(NS(=O)(=O)c2cccc3cccnc23)cc1)N1C2CCC1CN(Cc1ccccc1)C2
101 to 500%

Provide measured activation at 1 µM value, entry: O=C(c1ccc(NS(=O)(=O)c2cccc3cccnc23)cc1)N1C2CCC1CN(Cc1cc(F)cc(F)c1)C2
101 to 500%

Provide measured activation at 1 µM value, entry: C[C@H]1CN(Cc2cc(F)cc(F)c2)CCN1C(=O)c1ccc(NS(=O)(=O)c2cccc3cccnc23)cc1
1 to 100%

Provide measured activation at 1 µM value, entry: CC(C)[C@H]1CN(Cc2cc(F)cc(F)c2)CCN1C(=O)c1ccc(NS(=O)(=O)c2cccc3cccnc23)cc1
1 to 100%

Provide measured activation at 1 µM value, entry: C[C@@H]1CN(C(=O)OC2CCCC2)CCN1C(=O)c1ccc(NS(=O)(=O)c2cccc3cccnc23)cc1
101 to 500%

Provide measured activation at 1 µM value, entry: C[C@H]1CN(Cc2c(F)ccc(F)c2F)CCN1C(=O)c1ccc(NS(=O)(=O)c2cccc3cccnc23)cc1
1 to 100%

Provide measured activation at 1 µM value, entry: CC(C)OC(=O)N1CCN(C(=O)c2ccc(NS(=O)(=O)c3cccc4cccnc34)cc2)c2ccccc21
1 to 100%

Provide measured activation at 1 µM value, entry: C[C@@H]1CN(CC2CC2)CCN1C(=O)c1ccc(NS(=O)(=O)c2cccc3cccnc23)cc1
1 to 100%

Provide measured activation at 1 µM value, entry: C[C@@H]1CN(C(=O)c2ccc(NS(=O)(=O)c3cccc4cccnc34)cc2)CCN1C(=O)c1ccccn1
1 to 100%

Provide measured activation at 1 µM value, entry: CC(c1c(F)ccc(F)c1F)N1CCN(C(=O)c2ccc(NS(=O)(=O)c3cccc4cccnc34)cc2)[C@H](C)C1 (stereo partly shown)
101 to 500%

Provide measured activation at 1 µM value, entry: C[C@@H]1CN(C(=O)c2ccc(NS(=O)(=O)c3cccc4cccnc34)cc2)C[C@H](C)N1C(=O)c1ccccn1
101 to 500%

Provide measured activation at 1 µM value, entry: CC1CN(Cc2ccc(Cl)c(F)c2)CC(C)N1C(=O)c1ccc(NS(=O)(=O)c2cccc3cccnc23)cc1 (stereo not shown)
1 to 100%

Provide measured activation at 1 µM value, entry: C[C@H]1CN(CC2CCOC2)CCN1C(=O)c1ccc(NS(=O)(=O)c2cccc3cccnc23)cc1 (stereo partly shown)
1 to 100%

Provide measured activation at 1 µM value, entry: C[C@H]1CN(C(=O)c2ccc(NS(=O)(=O)c3cccc4cccnc34)cc2)CCN1C(=O)c1ccccn1
101 to 500%

Provide measured activation at 1 µM value, entry: O=C(c1ccc(NS(=O)(=O)c2cccc3cccnc23)cc1)N1CCN(CC2CC2)C[C@@H]1c1ccccc1
1 to 100%
